molecular target: c-Met (cytoplasmic domain) (Homo sapiens); construct: 10 ng/mL c-Met (cytoplasmic domain, Invitrogen Corporation #PV3143); purchased Invitrogen Corporation PV3143; assay: c-Met Kinase Assay (same methods as for ALK, with modifications); format: biochemical; conditions: 1 μM ATP (Km level); read-out: cMet Activity (c-Met Kinase Inhibition, IC50)
pIC50: −log10 of the molar value.

>  <Compound>
CNC(=O)c1cccc(F)c1Nc1nc(Nc2ccc3c(c2)CCC(NCC(F)F)CC3)ncc1Cl (stereo not shown) [Example 664]

>  <pIC50>
> 7.00

$$$$
>  <Compound>
COc1ccc2c(c1Nc1ncc(Cl)c(Nc3ccccc3-c3nccn3C)n1)NC(=O)CCC2(C)C [Example 998]

>  <pIC50>
< 5.00

$$$$
>  <Compound>
COc1c(Nc2ncc(Cl)c(Nc3ccccc3-n3cccn3)n2)ccc2c1CCC(NCC(F)F)CC2 (stereo not shown) [Example 689]

>  <pIC50>
< 5.00

$$$$
>  <Compound>
CC(C)N1CCNC(=O)c2ccc(Nc3ncc(Cl)c(N[C@@H]4CCCC[C@H]4NS(C)(=O)=O)n3)cc21 [Example 499]

>  <pIC50>
6.00 to 7.00

$$$$

###

target: c-Met (cytoplasmic domain) (Homo sapiens); construct: 10 ng/mL c-Met (cytoplasmic domain, Invitrogen Corporation #PV3143); purchased Invitrogen Corporation PV3143; experiment: c-Met Kinase Assay (same methods as for ALK, with modifications); format: biochemical; conditions: c-Met kinase inhibition, 1 μM ATP; read-out: cMet Activity
pIC50: −log10 of the molar value.
The reader will find reported pIC50 values listed item by item below.
Measurement Label: pIC50

>  <Molecule>
Cc1n[nH]c(-c2ccccc2Nc2nc(Nc3ccc4c(c3)CCOC(=O)N4C)ncc2Cl)n1 [Example 1788]

>  <Measurement Label>
pIC50

>  <Result>
> 7.00

$$$$
>  <Molecule>
COc1cc2c(cc1Nc1ncc(Cl)c(N[C@@H]3CCCC[C@H]3NS(C)(=O)=O)n1)CCN(CCN1CCOCC1)CC2 [Example 1533]

>  <Measurement Label>
pIC50

>  <Result>
< 5.00

$$$$
>  <Molecule>
CNC(=O)c1sccc1Nc1nc(Nc2ccc3c(c2)OCCCN3C(=O)CN2CCCC2)ncc1Cl [Example 1715]

>  <Measurement Label>
pIC50

>  <Result>
6.00 to 7.00

$$$$
>  <Molecule>
CCN1CC(=O)Nc2cc(Nc3ncc(Cl)c(Nc4ccc(N5CCOCC5)cc4OC)n3)c(OC)cc2C1 [Example 1661]

>  <Measurement Label>
pIC50

>  <Result>
< 5.00

$$$$

###

# IC50 per record follows
target: c-Met (cytoplasmic domain) (Homo sapiens, UniProt P08581); construct: 10 ng/mL c-Met (cytoplasmic domain, Invitrogen Corporation #PV3143); purchased Invitrogen Corporation PV3143; assay: c-Met Kinase Assay (same methods as for ALK, with modifications); format: biochemical; settings: 1 μM ATP (Km level); read-out: cMet Activity (c-Met Kinase Inhibition, IC50)
Sequence (P08581 956-1390 limits assumed): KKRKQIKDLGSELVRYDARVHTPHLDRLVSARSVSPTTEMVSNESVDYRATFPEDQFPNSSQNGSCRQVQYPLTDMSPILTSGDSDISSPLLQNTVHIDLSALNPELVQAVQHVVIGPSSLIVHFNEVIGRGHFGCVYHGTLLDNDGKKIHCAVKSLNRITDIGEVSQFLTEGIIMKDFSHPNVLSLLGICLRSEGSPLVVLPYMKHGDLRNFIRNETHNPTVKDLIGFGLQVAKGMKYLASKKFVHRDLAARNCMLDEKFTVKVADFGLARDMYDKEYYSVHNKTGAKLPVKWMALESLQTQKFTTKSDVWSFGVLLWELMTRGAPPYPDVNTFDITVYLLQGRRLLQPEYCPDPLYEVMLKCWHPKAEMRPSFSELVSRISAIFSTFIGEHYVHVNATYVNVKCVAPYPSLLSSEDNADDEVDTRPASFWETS

>  <Compound>
COc1cc2c(cc1Nc1ncc(Cl)c(Nc3ccc(N4CCOCC4)cc3OC)n1)CCN(CC(C)(F)F)CC2 [Example 780]

>  <IC50>
> 10 µM

$$$$
>  <Compound>
COCCN1CCc2ccc(Nc3ncc(Cl)c(Nc4ccccc4-c4ncccc4C)n3)cc2CC1 [Example 972]

>  <IC50>
0.1 to 1 µM

$$$$
>  <Compound>
COCCN(C)C1CCc2ccc(Nc3ncc(Cl)c(N[C@H]4[C@@H](C(N)=O)[C@@H]5C=C[C@H]4C5)n3)c(OC)c2CC1 (single isomer, unassigned) [Example 701]

>  <IC50>
> 10 µM

$$$$
>  <Compound>
COc1cc2c(cc1Nc1ncc(Cl)c(Nc3ccc(N4CCC(C(=O)O)CC4)cc3-n3cccn3)n1)CCN(CC(=O)N(C)C)CC2 [Example 630]

>  <IC50>
> 10 µM

$$$$
>  <Compound>
COc1cc2c(cc1Nc1ncc(Cl)c(N[C@@H]3CCCC[C@H]3NS(C)(=O)=O)n1)N(C)C(=O)CN(CC1CC1)C2 [Example 746]

>  <IC50>
> 10 µM

$$$$
>  <Compound>
COc1cc2c(cc1Nc1ncc(Cl)c(Nc3ccccc3S(=O)(=O)N3CC[C@H](C)C3)n1)CCN(CC(=O)N(C)C)CC2 [Example 856]

>  <IC50>
0.1 to 1 µM

$$$$
>  <Compound>
COc1cc2c(cc1Nc1ncc(Cl)c(Nc3ccc(N4CCN(C)CC4)cc3OC)n1)CCN(CC(C)(F)F)CC2 [Example 781]

>  <IC50>
> 10 µM

$$$$
>  <Compound>
CNC(=O)c1cccc(Nc2nc(Nc3ccc4c(c3)C(C)(C)CCC(=O)N4)ncc2Cl)c1 [Example 672]

>  <IC50>
1 to 10 µM

$$$$
>  <Compound>
CNC(=O)c1ccccc1Nc1nc(Nc2ccc3c(c2)OCCN(C)C3=O)ncc1Cl [Example 514]

>  <IC50>
< 0.1 µM

$$$$
>  <Compound>
CNC(=O)c1ccccc1Nc1nc(Nc2ccc3c(c2OC)CCC(=O)CC3)ncc1Cl [Example 868]

>  <IC50>
> 10 µM

$$$$
>  <Compound>
NC(=O)[C@@H]1[C@H](Nc2nc(Nc3ccc4c(c3)CCC(N3CCOCC3)CC4)ncc2C(F)(F)F)[C@H]2C=C[C@@H]1C2 (some centres unmarked) [Example 935]

>  <IC50>
< 0.1 µM

$$$$
>  <Compound>
CNC(=O)c1ccccc1Nc1nc(Nc2cccc3c2N(C)CCN(C)C3=O)ncc1Cl [Example 541]

>  <IC50>
> 10 µM

$$$$
>  <Compound>
COc1ccc(Nc2nc(Nc3cc4c(cc3OC)CCN(CC(=O)N(C)C)CC4)ncc2Cl)c(OC)c1 [Example 812]

>  <IC50>
> 10 µM

$$$$
>  <Compound>
CCN1C(=O)CCC(C)(C)c2ccc(Nc3ncc(Cl)c(Nc4ccc(N(C)C)cc4S(=O)(=O)N(C)C)n3)cc21 [Example 850]

>  <IC50>
0.1 to 1 µM

$$$$

###

molecular target: c-Met (cytoplasmic domain) (Homo sapiens, UniProt P08581); construct: 10 ng/mL c-Met (cytoplasmic domain, Invitrogen Corporation #PV3143); purchased Invitrogen Corporation PV3143; assay: c-Met Kinase Assay (same methods as for ALK, with modifications); type: biochemical; settings: 1 μM ATP (Km level), 10 ng/mL c-Met; read-out: cMet Activity (c-Met kinase inhibition, IC50 class)
pIC50: −log10 of the molar value.
We begin with a simple list: items and their reported pIC50.
Measurement Label: pIC50

>  <Compound>
COc1cc2c(cc1Nc1ncc(Cl)c(Nc3ccccc3S(=O)(=O)N(C)C)n1)CCC(NCC(F)F)CC2 (centres unmarked) [Example 1055]

>  <Measurement Label>
pIC50

>  <Result>
< 5.00

$$$$
>  <Compound>
C#CCNC(=O)c1cccc(F)c1Nc1nc(Nc2ccc3c(c2)NC(=O)C(NC(=O)N2CCCC2)CC3(C)C)ncc1Cl (centres unmarked) [Example 1296]

>  <Measurement Label>
pIC50

>  <Result>
> 7.00

$$$$
>  <Compound>
COc1cc2c(cc1Nc1ncc(Cl)c(Nc3cc(C(N)=O)ccc3OC)n1)CCN(CCS(C)(=O)=O)CC2 [Example 1137]

>  <Measurement Label>
pIC50

>  <Result>
< 5.00

$$$$
>  <Compound>
CCN1C(=O)[C@H](N2CCOCC2)CCc2c1ccc(Nc1ncc(Cl)c(N[C@H]3[C@@H](C(N)=O)[C@@H]4C=C[C@H]3C4)n1)c2OC (single isomer, unassigned) [Example 1344]

>  <Measurement Label>
pIC50

>  <Result>
< 5.00

$$$$
>  <Compound>
COc1cc2c(cc1Nc1ncc(Cl)c(Nc3ccccc3S(=O)(=O)C(C)C)n1)CCN(C(CF)CF)CC2 [Example 1394]

>  <Measurement Label>
pIC50

>  <Result>
< 5.00

$$$$
>  <Compound>
CCN1C(=O)[C@@H](N2CCOCC2)CCc2c1ccc(Nc1ncc(Cl)c(N[C@H]3[C@@H](C(N)=O)[C@@H]4C=C[C@H]3C4)n1)c2OC (single isomer, unassigned) [Example 1345]

>  <Measurement Label>
pIC50

>  <Result>
< 5.00

$$$$
>  <Compound>
CCNC(=O)c1cccc(F)c1Nc1nc(Nc2ccc3c(c2)C(C)(C)CCC(=O)N3C)ncc1Cl [Example 1366]

>  <Measurement Label>
pIC50

>  <Result>
> 7.00

$$$$
>  <Compound>
COc1ccc2c(c1Nc1ncc(Cl)c(Nc3ccccc3-n3cccn3)n1)CCC(N1CCOCC1)CC2 (centres unmarked) [Example 1071]

>  <Measurement Label>
pIC50

>  <Result>
< 5.00

$$$$
>  <Compound>
CNC(=O)CN1CCc2cc(Nc3ncc(Cl)c(Nc4c(F)cccc4C(=O)NC)n3)c(OC)cc2CC1 [Example 1116]

>  <Measurement Label>
pIC50

>  <Result>
5.00 to 6.00

$$$$
>  <Compound>
COCCN1CCc2ccc(Nc3ncc(Cl)c(Nc4c(F)cccc4OCC4CCOC4)n3)cc2CC1 (centres unmarked) [Example 1275]

>  <Measurement Label>
pIC50

>  <Result>
5.00 to 6.00

$$$$
>  <Compound>
COc1cc2c(cc1Nc1ncc(Cl)c(Nc3ccccc3S(C)(=O)=O)n1)CCN(CCS(C)(=O)=O)CC2 [Example 1148]

>  <Measurement Label>
pIC50

>  <Result>
5.00 to 6.00

$$$$
>  <Compound>
CC1(C)CCC(=O)Nc2ccc(Nc3ncc(Cl)c(Nc4ccc5[nH]c(C(F)(F)F)nc5c4)n3)cc21 [Example 1014]

>  <Measurement Label>
pIC50

>  <Result>
< 5.00

$$$$
>  <Compound>
COCCN1CCc2ccc(Nc3ncc(Cl)c(N[C@H]4CC[C@H](N(CC#N)S(C)(=O)=O)CC4)n3)cc2CC1 [Example 1385]

>  <Measurement Label>
pIC50

>  <Result>
5.00 to 6.00

$$$$
>  <Compound>
CNC(=O)c1cccc(F)c1Nc1nc(Nc2ccc3c(c2)-n2ccnc2CCC3(C)C)ncc1Cl [Example 1270]

>  <Measurement Label>
pIC50

>  <Result>
> 7.00

$$$$
